- System: Hs-578T
- assay: NCI tumour cell line growth inhibition, 48 h
The source made the active and inactive calls. Cut-off read from the data, not from the text of the source: active = GI50 up to about 1.1 µM and inactive = higher.
endpointName: GI50

# map each compound to its GI50
1. C/C(=N\Nc1nc2ccccc2s1)c1cccc[n+]1[O-]
2. CCOC(=O)c1[nH]c2cccc3c2c1CC[C@H](NC(=O)C(F)(F)F)C3=O

1: > 100 µM (inactive); 2: 19.5 µM (inactive)

Would you mind giving GI50 for every compound in the list below?
1. CS(=O)(=O)Nc1ccc2c(c1)oc(=O)c1ccccc12
2. Cc1nc2ccc(/N=N/N(C)C)cc2[nH]1
3. O=c1c2cc(I)ccc2nc(SCc2nncs2)n1Cc1ccccc1
4. CCCCC1Cc2cc(OC)ccc2-c2nc3cc(OC)ccc3n21.CCCCC1Cc2cc(OC)ccc2-c2nc3ccc(OC)cc3n21 (configuration not stated)

1: > 100 µM (inactive); 2: > 100 µM (inactive); 3: 16.3 µM (inactive); 4: 12.7 µM (inactive)

Look up GI50 for this compound: CC(O)C1OC(O)C2OC(C)(C)OC12 (configuration not stated)
> 100 µM (inactive)
